Tested on: HEK-293T
Assay: Multiplex assay against HEK293T
Type: toxicity, cell-based
Details: human, 24 h, 10 µM, compound concentration 10 uM, number of replicates 2
quantity_measured: Population Mitotic Cells (%)

INSERT INTO results (compound, test_system, measured_number) VALUES
  ('CN(C)CCN(Cc1ccc(-c2ccc(CNCCc3ccccc3)cc2)cc1)C(=O)CCC1CCCC1.Cl.Cl', 'HEK-293T', 26),
  ('CC(C)S(=O)(=O)c1ccccc1Nc1nc(N[C@@H]2CCCN(CCCCCCCNC(=O)COc3cccc4c3C(=O)N(C3CCC(=O)N(C)C3=O)C4=O)C2)ncc1Cl (some centres undefined)', 'HEK-293T', 17),
  ('C[C@@H](OC[C@@]1(c2ccccc2)CC[C@]2(CCC(=O)N2)CN1)c1cc(C(F)(F)F)cc(C(F)(F)F)c1 [ROLAPITANT]', 'HEK-293T', 38),
  ('CS(=O)(=O)c1ccc(C(=O)Nc2cc(F)cc(COc3ccc(Br)cc3CN3CC[C@H](O)C3)c2)c(Cl)c1.O=CO', 'HEK-293T', 29);

Ref: ChEMBL document CHEMBL5303300
